Ref: patent US4633014A

Test system: arrhythmia induced by an intravenous administration of calcium chloride
Assay: Antiarrhythmic activity on a model of arrhythmia induced by intravenous calcium chloride (antagonism to calcium) in mice
Format: in vivo
Details: white mice; intraperitoneal dose 15 mg/kg, 20-40 minutes before
MEASUREMENT TYPE: Dose of calcium chloride causing death in animals under experiment

Which value of Dose of calcium chloride causing death in animals under experiment has been reported for CN(C)N(CCC#N)C(=O)Nc1ccccc1 in the records?
130,0 mg/kg

Try this compound next: COC(=O)CCN(C(=O)c1ccccc1F)N(C)C
112,5 mg/kg

// query: CCOC(=O)CCN(C(=S)Nc1ccccc1)N(C)C
125,7 mg/kg

Subsequent entry: CNC(=S)N(CCC(=O)O)N(C)C
130,0 mg/kg

# repeat for C=CCNC(=S)N(CCC(N)=O)N(C)C
168 mg/kg

Same read-out for CCOC(=O)CCN(C(=O)c1ccccc1)N(C)C ?
126,0 mg/kg

Try CCCCCCCCOC(=O)CCN(C(=S)Nc1ccccc1)N(C)C next.
130,8 mg/kg

Next compound up: CNC(=O)N(CCC(=O)OC)N(C)C
140,6 mg/kg

Now this one: CC(=O)N(CCC(N)=O)N(C)C
125 mg/kg

Could you do the same for CCCCCC(=O)N(CCC(=O)OC)N(C)C , please?
140,0 mg/kg

Param item: COC(=O)CCN(C(=O)CCO)N(C)C
132,5 mg/kg

Can you handle CCOC(=O)CCN(C(C)=O)N(C)C next?
115,0 mg/kg

====

System: arrhythmia induced by an intravenous administration of calcium chloride
Assay: Antiarrhythmic activity on a model of arrhythmia induced by intravenous calcium chloride (antagonism to calcium) in mice
Type: in vivo
Details: white mice; intraperitoneal dose 5 mg/kg, 20-40 minutes before
Provide the reported Dose of calcium chloride causing arrythmia in animals under experiment of each item.

Would you kindly share the measured Dose of calcium chloride causing arrythmia in animals under experiment for CC(CN(C(=S)Nc1ccccc1)N(C)C)C(N)=O (centres unmarked) [I-20] ?
102 mg/kg

Again, but for CCCCCC(=O)N(CCC(=O)OC)N(C)C [I-26]
111,3 mg/kg

Quick one: CCCC(=O)N(CCC(N)=O)N(C)C [I-48]
88 mg/kg

What do we get for COC(=O)CCN(C(N)=O)N(C)C [I-1] ?
118,5 mg/kg

Lookup CCCCCCCCOC(=O)CCN(C(=S)Nc1ccccc1)N(C)C [I-60]
90,8 mg/kg

Would you mind doing COC(=O)C(C)CN(C(=O)c1ccc(Br)cc1)N(C)C (centres unmarked) [I-41] as well?
90,6 mg/kg

What do we get for CCOC(=O)CCN(C(=O)c1ccccc1F)N(C)C [I-45] ?
95,0 mg/kg

And for COC(=O)CC(C(=O)OC)N(C(=O)NCCCCCCNC(=O)N(C(CC(=O)OC)C(=O)OC)N(C)C)N(C)C (centres unmarked) [I-57] ?
103,5 mg/kg

// same read-out, input: CCOC(=O)CCN(C(=S)Nc1ccccc1)N(C)C [I-10]
102,0 mg/kg

Record: COC(=O)CCN(C(C)=O)N(C)C [I-24]
108,0 mg/kg

Next compound up: COC(=O)C(C)CN(C(=O)c1ccccc1)N(C)C (centres unmarked) [I-39]
88,7 mg/kg
